// values below are reported pIC50
Test system: 772245-204-R-J1-PDC complex spheroid growth
experimental details: Anticancer human tumor 772245-204-R-J1-PDC patient-derived rhabdomyosarcoma cell line growth inhibition [Asc]
condition label: curve of first compound; second compound 0.316 µM
In simple prose, pIC50 is minus the logarithm base ten of a concentration in moles per litre.

CNC(C)C(=O)NC1CN(S(=O)(=O)c2cccc(S(=O)(=O)N3CCC4CCC(C(=O)NC(c5ccccc5)c5ccccc5)N4C(=O)C(NC(=O)C(C)NC)C3)c2)CCC2CCC(C(=O)NC(c3ccccc3)c3ccccc3)N2C1=O (stereo not drawn) + Cc1c(S(C)(=O)=O)c(-c2cc(F)cc(N3CCN(c4ccc(NS(=O)(=O)c5ccc(NC(CCN6CCC(C(=O)OCCCP(=O)(O)O)CC6)CSc6ccccc6)c(S(=O)(=O)C(F)(F)F)c5)cc4)CC3)c2)c(-c2ccc(Cl)cc2)n1C(C)C | 7.14

In the following, a different molecule is considered.
Need pIC50, item NC(=O)C(=Cn1cnc(-c2cc(C(F)(F)F)cc(C(F)(F)F)c2)n1)c1cncnc1 + Cc1c(S(C)(=O)=O)c(-c2cc(F)cc(N3CCN(c4ccc(NS(=O)(=O)c5ccc(NC(CCN6CCC(C(=O)OCCCP(=O)(O)O)CC6)CSc6ccccc6)c(S(=O)(=O)C(F)(F)F)c5)cc4)CC3)c2)c(-c2ccc(Cl)cc2)n1C(C)C
8.18

---

System: 772245-204-R-J1-PDC complex spheroid growth
experimental details: Anticancer human tumor 772245-204-R-J1-PDC cell line growth inhibition [Asc];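 note: compound exposure lasted seven days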;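 for viability, T/C: 100% = DMSO vehicle control viability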
condition label: second compound 0.949 µM; first compound 0.316 µM; stronger effect = lower value
Description: Multicellular complex tumor spheroid response to apoptosis pathway targeting inhibitors Alrizomadlin, Pelcitoclax, and Dasminapant in combination with a variety of drugs and investigational agents in selected tumor cell lines […] Compounds. […] If the clinical Cmax for an agent had not been determined, the highest concentration tested was 10 microM. […]
Attribute: viability, T/C
Please state the figure in %; there is no need to write the unit.

In the examples that follow, each entry is paired with its recorded viability, T/C.
C=C(F)C(=O)N1CCN(c2nc(OCC3CCCN3C)nc3c2CCN(c2cccc4cccc(Cl)c24)C3)CC1CC#N (stereo not drawn) + CCN1C(C(=O)NC23CCC(C(=O)O)(CC2)CC3)C(c2cccc(Cl)c2F)C2(C(=O)Nc3cc(Cl)ccc32)C12CCCCC2 | 91.6
C=CC(=O)N1CCN(c2nc(=O)n(-c3c(C)ccnc3C(C)C)c3nc(-c4c(O)cccc4F)c(F)cc23)C(C)C1 (stereo not drawn) + CCN1C(C(=O)NC23CCC(C(=O)O)(CC2)CC3)C(c2cccc(Cl)c2F)C2(C(=O)Nc3cc(Cl)ccc32)C12CCCCC2 | 99.5
C#Cc1c(F)ccc2cc(O)cc(-c3ncc4c(N5CC6CCC(C5)N6)nc(OCC56CCCN5CC(F)C6)nc4c3F)c12 (stereo not drawn) + CCN1C(C(=O)NC23CCC(C(=O)O)(CC2)CC3)C(c2cccc(Cl)c2F)C2(C(=O)Nc3cc(Cl)ccc32)C12CCCCC2 | 86
O=C(c1cc(Cc2n[nH]c(=O)c3ccccc23)ccc1F)N1CCN(C(=O)C2CC2)CC1 + CCN1C(C(=O)NC23CCC(C(=O)O)(CC2)CC3)C(c2cccc(Cl)c2F)C2(C(=O)Nc3cc(Cl)ccc32)C12CCCCC2 | 99.6
CNC(C)C(=O)NC1CN(S(=O)(=O)c2cccc(S(=O)(=O)N3CCC4CCC(C(=O)NC(c5ccccc5)c5ccccc5)N4C(=O)C(NC(=O)C(C)NC)C3)c2)CCC2CCC(C(=O)NC(c3ccccc3)c3ccccc3)N2C1=O (stereo not drawn) + CCN1C(C(=O)NC23CCC(C(=O)O)(CC2)CC3)C(c2cccc(Cl)c2F)C2(C(=O)Nc3cc(Cl)ccc32)C12CCCCC2 | 73

Quick one: viability, T/C of COc1c(OCCCN2CCOCC2)ccc2c3n(c(=NC(=O)c4cnc(N)nc4)nc12)CCN3 + CCN1C(C(=O)NC23CCC(C(=O)O)(CC2)CC3)C(c2cccc(Cl)c2F)C2(C(=O)Nc3cc(Cl)ccc32)C12CCCCC2 ?
37.3

Would you mind telling me what viability, T/C value was observed for CCN1CCN(Cc2ccc(Nc3ncc(F)c(-c4cc(F)c5nc(C)n(C(C)C)c5c4)n3)nc2)CC1 + CCN1C(C(=O)NC23CCC(C(=O)O)(CC2)CC3)C(c2cccc(Cl)c2F)C2(C(=O)Nc3cc(Cl)ccc32)C12CCCCC2 ?
92.9

# query: viability, T/C of entry O=C(c1ccc(F)c(F)c1Nc1ccc(I)cc1F)N1CC(O)([C@@H]2CCCCN2)C1 + CCN1C(C(=O)NC23CCC(C(=O)O)(CC2)CC3)C(c2cccc(Cl)c2F)C2(C(=O)Nc3cc(Cl)ccc32)C12CCCCC2
105

---

Tested on: 772245-204-R-J1-PDC complex spheroid growth
experimental details: Anticancer human tumor 772245-204-R-J1-PDC cell line growth inhibition [Asc];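 note: compound exposure lasted seven days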;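 for viability, T/C: 100% = DMSO vehicle control viability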
condition label: second compound 0.01 µM; first compound 0.316 µM; stronger effect = lower value
measurement label: viability, T/C (%)
Give a bare numeral; the unit % is implied.

CCN1CCN(Cc2ccc(Nc3ncc(F)c(-c4cc(F)c5nc(C)n(C(C)C)c5c4)n3)nc2)CC1 + CNC(C)C(=O)NC1CN(S(=O)(=O)c2cccc(S(=O)(=O)N3CCC4CCC(C(=O)NC(c5ccccc5)c5ccccc5)N4C(=O)C(NC(=O)C(C)NC)C3)c2)CCC2CCC(C(=O)NC(c3ccccc3)c3ccccc3)N2C1=O | 106

Using the record for C=CC(=O)N1CCN(c2nc(=O)n(-c3c(C)ccnc3C(C)C)c3nc(-c4c(O)cccc4F)c(F)cc23)C(C)C1 (configuration not stated) + CNC(C)C(=O)NC1CN(S(=O)(=O)c2cccc(S(=O)(=O)N3CCC4CCC(C(=O)NC(c5ccccc5)c5ccccc5)N4C(=O)C(NC(=O)C(C)NC)C3)c2)CCC2CCC(C(=O)NC(c3ccccc3)c3ccccc3)N2C1=O , report its viability, T/C.
91.6

---

System: 772245-204-R-J1-PDC complex spheroid growth
experimental details: Anticancer human tumor 772245-204-R-J1-PDC cell line growth inhibition [Asc];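 note: compound exposure lasted seven days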
condition label: curve of first compound; second compound 0.0949 µM
In this section, each of the compounds is paired with its reported IC50.

CNC(C)C(=O)NC1CN(S(=O)(=O)c2cccc(S(=O)(=O)N3CCC4CCC(C(=O)NC(c5ccccc5)c5ccccc5)N4C(=O)C(NC(=O)C(C)NC)C3)c2)CCC2CCC(C(=O)NC(c3ccccc3)c3ccccc3)N2C1=O (stereo not drawn) + CCN1C(C(=O)NC23CCC(C(=O)O)(CC2)CC3)C(c2cccc(Cl)c2F)C2(C(=O)Nc3cc(Cl)ccc32)C12CCCCC2 | > 1000 nM

Observed IC50 on 772245-204-R-J1-PDC complex spheroid growth for COc1c(OCCCN2CCOCC2)ccc2c3n(c(=NC(=O)c4cnc(N)nc4)nc12)CCN3 + CCN1C(C(=O)NC23CCC(C(=O)O)(CC2)CC3)C(c2cccc(Cl)c2F)C2(C(=O)Nc3cc(Cl)ccc32)C12CCCCC2 , please.
146 nM

For 772245-204-R-J1-PDC complex spheroid growth, provide IC50 of Cn1ncnc1[C@H]1c2n[nH]c(=O)c3cc(F)cc(c23)N[C@@H]1c1ccc(F)cc1 + CCN1C(C(=O)NC23CCC(C(=O)O)(CC2)CC3)C(c2cccc(Cl)c2F)C2(C(=O)Nc3cc(Cl)ccc32)C12CCCCC2 please.
> 100 nM

---

Tested on: 772245-204-R-J1-PDC complex spheroid growth
experimental details: Anticancer human tumor 772245-204-R-J1-PDC cell line growth inhibition [Asc];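 note: compound exposure lasted seven days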;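 for viability, T/C: 100% = DMSO vehicle control viability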
condition label: second compound 0.3 µM; first compound 0.0316 µM; stronger effect = lower value
measurement label: viability, T/C (%)
Give just the numeric value; % need not be written.

C=CC(=O)N1CCN(c2nc(=O)n(-c3c(C)ccnc3C(C)C)c3nc(-c4c(O)cccc4F)c(F)cc23)C(C)C1 (configuration not stated) + CCN1C(C(=O)NC23CCC(C(=O)O)(CC2)CC3)C(c2cccc(Cl)c2F)C2(C(=O)Nc3cc(Cl)ccc32)C12CCCCC2 | 104
CCN1CCN(Cc2ccc(Nc3ncc(F)c(-c4cc(F)c5nc(C)n(C(C)C)c5c4)n3)nc2)CC1 + CCN1C(C(=O)NC23CCC(C(=O)O)(CC2)CC3)C(c2cccc(Cl)c2F)C2(C(=O)Nc3cc(Cl)ccc32)C12CCCCC2 | 122
CNC(C)C(=O)NC1CN(S(=O)(=O)c2cccc(S(=O)(=O)N3CCC4CCC(C(=O)NC(c5ccccc5)c5ccccc5)N4C(=O)C(NC(=O)C(C)NC)C3)c2)CCC2CCC(C(=O)NC(c3ccccc3)c3ccccc3)N2C1=O (configuration not stated) + CCN1C(C(=O)NC23CCC(C(=O)O)(CC2)CC3)C(c2cccc(Cl)c2F)C2(C(=O)Nc3cc(Cl)ccc32)C12CCCCC2 | 84.6
C=C(F)C(=O)N1CCN(c2nc(OCC3CCCN3C)nc3c2CCN(c2cccc4cccc(Cl)c24)C3)CC1CC#N (configuration not stated) + CCN1C(C(=O)NC23CCC(C(=O)O)(CC2)CC3)C(c2cccc(Cl)c2F)C2(C(=O)Nc3cc(Cl)ccc32)C12CCCCC2 | 95.8
Cn1ncnc1[C@H]1c2n[nH]c(=O)c3cc(F)cc(c23)N[C@@H]1c1ccc(F)cc1 + CCN1C(C(=O)NC23CCC(C(=O)O)(CC2)CC3)C(c2cccc(Cl)c2F)C2(C(=O)Nc3cc(Cl)ccc32)C12CCCCC2 | 93
O=C(c1ccc(F)c(F)c1Nc1ccc(I)cc1F)N1CC(O)([C@@H]2CCCCN2)C1 + CCN1C(C(=O)NC23CCC(C(=O)O)(CC2)CC3)C(c2cccc(Cl)c2F)C2(C(=O)Nc3cc(Cl)ccc32)C12CCCCC2 | 98.6

The record that follows has no viability, T/C shown yet.
Fill in the blank: the reported viability, T/C of C#Cc1c(F)ccc2cc(O)cc(-c3ncc4c(N5CC6CCC(C5)N6)nc(OCC56CCCN5CC(F)C6)nc4c3F)c12 (configuration not stated) + CCN1C(C(=O)NC23CCC(C(=O)O)(CC2)CC3)C(c2cccc(Cl)c2F)C2(C(=O)Nc3cc(Cl)ccc32)C12CCCCC2 is ____.
108
